These data points were gathered from patent US4430345A.

tested on: rabbit aorta (thromboxane receptor sites); test: Rabbit aorta system: antagonism of contraction by 11,9-(epoxymethano) PGH2; type: cell-based; design: key: (2): Partial agonist; details: against 11,9-(epoxymethano) PGH2; compound added 30 minutes previously
PROPERTY_MEASURED: Rabbit Aorta, affinity constant not given

molecule="O=C(O)CCC/C=C\\C[C@@H]1[C@@H](C=NOCCOc2ccc(Cl)cc2)[C@@H]2C=C[C@H]1C2 (relative stereo)" experimental_value=(2)
molecule="O=C(O)CCC/C=C\\C[C@H]1[C@H]2CC[C@H](C2)[C@@H]1C=NOCc1cccc(C(F)(F)F)c1 (relative stereo)" experimental_value=(2)
molecule="O=C(O)CCC/C=C\\C[C@H]1[C@H]2CC[C@H](C2)[C@@H]1C=NOCc1cccc(Cl)c1 (relative stereo)" experimental_value=(2)
molecule="O=C(O)CCC/C=C\\C[C@@H]1[C@@H](C=NOCCOc2ccc(F)cc2)[C@@H]2C=C[C@H]1C2 (relative stereo)" experimental_value=(2)

----------
molecular target: human platelets (thromboxane receptor sites) (Homo sapiens); construct: Platelet-rich plasma is obtained from fresh, citrated human blood; endogenous in cells; host or cells: human platelets (platelet-rich plasma from fresh, citrated human blood); assay: Human platelet system: antagonism of aggregation by 11,9-(epoxymethano) PGH2; type: cell-based; details: against 11,9-epoxymethano analogue of PGH2; compound added 5 minutes previously; Gaddum-Schild Equation; read-out: AFFINITY CONSTANTS (KB), Human Platelets (converted)
Sequence (P21731 whole entry): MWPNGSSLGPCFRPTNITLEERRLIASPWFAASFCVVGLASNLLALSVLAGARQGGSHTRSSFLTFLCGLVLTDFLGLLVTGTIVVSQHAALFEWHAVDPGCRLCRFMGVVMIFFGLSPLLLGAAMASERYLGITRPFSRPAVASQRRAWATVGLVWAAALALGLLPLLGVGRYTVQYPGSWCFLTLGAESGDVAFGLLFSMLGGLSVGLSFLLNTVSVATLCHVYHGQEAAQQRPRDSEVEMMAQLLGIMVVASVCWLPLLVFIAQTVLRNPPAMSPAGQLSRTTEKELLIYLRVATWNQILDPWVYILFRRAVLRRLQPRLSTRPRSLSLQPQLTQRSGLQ
PROPERTY_MEASURED: Kb
Param answer (str): number followed by unit.

compound="CCCCCON=C[C@H]1[C@@H]2CC[C@@H](C2)[C@@H]1C/C=C\\CCCC(=O)O (relative stereo)" target_under_test="human platelets (thromboxane receptor sites) (Homo sapiens)" experimental_value="5.88 µM"
compound="O=C(O)CCC/C=C\\C[C@@H]1[C@@H](C=NOC(c2ccccc2)c2ccccc2)[C@@H]2C=C[C@H]1C2 (relative stereo)" target_under_test="human platelets (thromboxane receptor sites) (Homo sapiens)" experimental_value="0.0196 µM"
compound="O=C(O)CCCCCC[C@H]1[C@H]2CC[C@H](C2)[C@@H]1C=NOCc1ccc(F)cc1 (relative stereo)" target_under_test="human platelets (thromboxane receptor sites) (Homo sapiens)" experimental_value="12 µM"

Pending compound:
Ask | Given the entry O=C(O)CCC/C=C\C[C@@H]1[C@@H](C=NOCc2ccccc2)[C@@H]2C=C[C@H]1C2 (relative stereo) , report its measured Kb.
Reply | 5.26 µM

----------
tested on: rabbit aorta (thromboxane receptor sites); test: Rabbit aorta system: antagonism of contraction by 11,9-(epoxymethano) PGH2; assay type: cell-based; conditions: Oryctolagus cuniculus, 0.5 h; against 11,9-(epoxymethano) PGH2; compound added 30 minutes previously; Gaddum-Schild Equation; read-out: AFFINITY CONSTANTS, Rabbit Aorta (converted)
Decide using Kb alone. Strictly below 700 nM: 1. Equal to or above 700 nM: 0.

Illustrative cases are given below, each with its answer.
compound="O=C(O)CCC/C=C\\C[C@H]1[C@H]2CC[C@H](C2)[C@@H]1C=NOCc1ccc(Cl)cc1Cl (relative stereo)" class_assignment=1
compound="O=C(O)CCC/C=C\\C[C@H]1[C@H]2CC[C@H](C2)[C@@H]1C=NOC(c1ccccc1)c1ccccc1 (relative stereo)" class_assignment=0
compound="O=C(O)CCC/C=C\\C[C@H]1[C@H]2CC[C@H](C2)[C@@H]1C=NOCc1ccc(F)cc1 (relative stereo)" class_assignment=1
compound="O=C(O)CCC/C=C\\C[C@@H]1[C@@H](C=NOCc2ccccc2)[C@@H]2C=C[C@H]1C2 (relative stereo)" class_assignment=1

Please look at the following compound next.
Ask | Strictly below 700 nM: is that where Kb of O=C(O)CCC/C=C\C[C@@H]1[C@@H](C=NOCCOc2ccccc2)[C@@H]2C=C[C@H]1C2 (relative stereo) sits?
Reply | 1
